What follows is a record of IC50 for E. coli PBP2 (Escherichia coli, UniProt P0AD65).
Property name: IC50 (µM)

compound="CC(C)(O/N=C(\\C(=O)N[C@@H]1C(=O)N2C(C(=O)[O-])=C(C[n+]3ccccc3)CS[C@H]12)c1csc(N)n1)C(=O)O [CAZ, ceftazidime]" censoring_sign=> assay_result=45.7
compound="CC1(C)S[C@@H]2[C@H](/N=C/N3CCCCCC3)C(=O)N2[C@H]1C(=O)O [MEC, amdinocillin]" censoring_sign== assay_result=0.0615
compound="NC(=O)[C@@H]1CC[C@@H]2CN1C(=O)N2OS(=O)(=O)O [AVI, avibactam]" censoring_sign== assay_result=3.47

----------
What follows is a record of IC50 for E. coli PBP4 (Escherichia coli, UniProt P24228).
Property name: IC50

chemical_structure=CC1(C)S[C@@H]2[C@H](/N=C/N3CCCCCC3)C(=O)N2[C@H]1C(=O)O assay_result="> 39.9 µM"
chemical_structure=CC(C)(O/N=C(\C(=O)N[C@@H]1C(=O)N2C(C(=O)[O-])=C(C[n+]3ccccc3)CS[C@H]12)c1csc(N)n1)C(=O)O assay_result="> 45.7 µM"
chemical_structure=NC(=O)[C@@H]1CC[C@@H]2CN1C(=O)N2OS(=O)(=O)O assay_result="> 49 µM"

----------
biological target: P. aeruginosa PBP2 (Pseudomonas aeruginosa); assay: PBP competition assay with Bocillin FL
Sequence (Q9X6V3 1-646): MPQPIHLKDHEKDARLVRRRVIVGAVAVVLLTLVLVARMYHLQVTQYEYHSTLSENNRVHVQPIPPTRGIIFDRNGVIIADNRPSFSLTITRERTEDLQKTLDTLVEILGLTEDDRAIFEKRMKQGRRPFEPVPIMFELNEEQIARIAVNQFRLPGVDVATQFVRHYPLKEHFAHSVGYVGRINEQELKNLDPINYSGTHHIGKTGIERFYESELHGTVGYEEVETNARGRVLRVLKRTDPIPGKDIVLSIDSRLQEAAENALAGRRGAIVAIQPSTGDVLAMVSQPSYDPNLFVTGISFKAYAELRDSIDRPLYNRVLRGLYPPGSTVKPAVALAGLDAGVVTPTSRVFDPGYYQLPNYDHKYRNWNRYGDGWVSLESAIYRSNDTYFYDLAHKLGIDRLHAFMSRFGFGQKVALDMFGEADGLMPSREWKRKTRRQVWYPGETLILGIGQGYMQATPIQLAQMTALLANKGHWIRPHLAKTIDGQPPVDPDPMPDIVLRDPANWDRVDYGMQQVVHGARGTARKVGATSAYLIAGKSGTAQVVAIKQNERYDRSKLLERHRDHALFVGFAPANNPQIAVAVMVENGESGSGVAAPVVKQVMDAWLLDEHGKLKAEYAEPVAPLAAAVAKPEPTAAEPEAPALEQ
Property name: IC50 (µM)

chemical_structure=NC(=O)[C@@H]1CC[C@@H]2CN1C(=O)N2OS(=O)(=O)O unit_label=µM censoring_sign== assay_result=4.15
chemical_structure=CC1(C)S[C@@H]2[C@H](/N=C/N3CCCCCC3)C(=O)N2[C@H]1C(=O)O unit_label=µM censoring_sign== assay_result=0.645
chemical_structure=CC(C)(O/N=C(\C(=O)N[C@@H]1C(=O)N2C(C(=O)[O-])=C(C[n+]3ccccc3)CS[C@H]12)c1csc(N)n1)C(=O)O unit_label=µM censoring_sign=> assay_result=45.7

----------
target: E. coli PBP1b (Escherichia coli, UniProt P02919); test: PBP competition assay with Bocillin FL; format: binding
Sequence (P02919 whole entry): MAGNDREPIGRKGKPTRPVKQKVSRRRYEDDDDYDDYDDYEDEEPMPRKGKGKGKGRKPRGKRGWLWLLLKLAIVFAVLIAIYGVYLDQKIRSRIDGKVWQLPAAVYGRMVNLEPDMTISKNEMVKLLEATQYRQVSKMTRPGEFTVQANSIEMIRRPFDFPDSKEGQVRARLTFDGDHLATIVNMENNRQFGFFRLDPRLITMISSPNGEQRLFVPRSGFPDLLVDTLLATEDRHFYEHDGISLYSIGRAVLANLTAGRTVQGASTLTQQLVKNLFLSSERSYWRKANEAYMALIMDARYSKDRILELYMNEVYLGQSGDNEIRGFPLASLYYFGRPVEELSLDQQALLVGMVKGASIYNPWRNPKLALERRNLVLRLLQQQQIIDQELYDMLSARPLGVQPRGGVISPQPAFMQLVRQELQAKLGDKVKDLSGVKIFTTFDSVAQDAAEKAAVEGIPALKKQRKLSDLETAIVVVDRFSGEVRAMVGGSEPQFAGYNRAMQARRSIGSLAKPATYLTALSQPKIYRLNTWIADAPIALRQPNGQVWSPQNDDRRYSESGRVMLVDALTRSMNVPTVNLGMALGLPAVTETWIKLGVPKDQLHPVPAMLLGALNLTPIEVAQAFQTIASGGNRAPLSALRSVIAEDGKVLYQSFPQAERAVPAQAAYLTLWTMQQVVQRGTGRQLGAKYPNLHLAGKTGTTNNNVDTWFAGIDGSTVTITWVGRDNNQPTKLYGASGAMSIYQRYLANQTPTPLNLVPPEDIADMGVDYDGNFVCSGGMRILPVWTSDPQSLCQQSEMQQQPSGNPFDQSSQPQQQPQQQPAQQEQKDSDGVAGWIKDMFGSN
pIC50: −log10 of the molar value.
Property: pIC50; scope: individual molecules
Property name: pIC50

chemical_structure=NC(=O)[C@@H]1CC[C@@H]2CN1C(=O)N2OS(=O)(=O)O target_of_assay="E. coli PBP1b (Escherichia coli, UniProt P02919)" property_name=pIC50 assay_result="< 4.31"
chemical_structure=CC1(C)S[C@@H]2[C@H](/N=C/N3CCCCCC3)C(=O)N2[C@H]1C(=O)O target_of_assay="E. coli PBP1b (Escherichia coli, UniProt P02919)" property_name=pIC50 assay_result="< 4.40"
chemical_structure=CC(C)(O/N=C(\C(=O)N[C@@H]1C(=O)N2C(C(=O)[O-])=C(C[n+]3ccccc3)CS[C@H]12)c1csc(N)n1)C(=O)O target_of_assay="E. coli PBP1b (Escherichia coli, UniProt P02919)" property_name=pIC50 assay_result=4.83

----------
biological target: S. aureus PBP4 (Staphylococcus aureus, UniProt P72355)
Sequence (P72355 25-431): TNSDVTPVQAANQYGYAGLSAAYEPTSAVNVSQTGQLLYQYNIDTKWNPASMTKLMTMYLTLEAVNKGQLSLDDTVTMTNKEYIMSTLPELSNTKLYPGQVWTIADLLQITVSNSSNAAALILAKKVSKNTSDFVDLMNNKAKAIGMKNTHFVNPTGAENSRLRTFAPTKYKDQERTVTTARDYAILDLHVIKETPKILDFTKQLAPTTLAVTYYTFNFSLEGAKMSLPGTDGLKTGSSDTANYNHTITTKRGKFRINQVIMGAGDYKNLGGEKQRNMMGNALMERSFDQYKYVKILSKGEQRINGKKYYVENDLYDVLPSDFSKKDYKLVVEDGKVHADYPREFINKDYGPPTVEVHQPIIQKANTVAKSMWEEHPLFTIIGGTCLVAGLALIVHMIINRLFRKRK
Property: IC50; scope: individual molecules
Property name: IC50

molecule="NC(=O)[C@@H]1CC[C@@H]2CN1C(=O)N2OS(=O)(=O)O [AVI, avibactam]" assay_result="> 965 µM"
molecule="CC(C)(O/N=C(\\C(=O)N[C@@H]1C(=O)N2C(C(=O)[O-])=C(C[n+]3ccccc3)CS[C@H]12)c1csc(N)n1)C(=O)O [CAZ, ceftazidime]" assay_result="> 14.6 µM"
